Property: SPOT intensity; scope: individual binders
# target_under_test: T1, Bzz1-1, P38822
# T1 sequence (P38822 478-572, looked up): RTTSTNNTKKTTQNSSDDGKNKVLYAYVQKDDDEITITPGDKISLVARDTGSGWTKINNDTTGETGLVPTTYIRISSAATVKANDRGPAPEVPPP
# assay_overview: SPOT array
# measurement_setup: median of control spots 4446
Just the number, please, no unit after it.

Reference set (2 entries):
1) MTKTPETSPPKRPMG; 3
2) DTFLPPPPPPPSNFE; 3

Task item: Requested read-out: SPOT intensity. Entry: `RVRKTHVPASKRPSG`
Reply: 0
